Field: TD50. Provide a value for each of the molecules that follow.
EXPERIMENT NOTES: Neurological toxicity in ip dosed albino CF1 mouse assessed as neurological impairment by rotarod test
Type: organism-based
CONDITION PARAMETERS: in vivo
Report the value in mg/kg with no unit label.

Sample `COC[C@@H](NC(C)=O)C(=O)NCc1ccc(C)cc1` — what was its TD50?
31

# iterate: `COC[C@@H](NC(C)=O)C(=O)NCc1ccc(C(C)C)cc1`
100

# iterate: `CCc1ccc(CNC(=O)[C@H](COC)NC(C)=O)cc1`
100

# iterate: `COC[C@@H](NC(C)=O)C(=O)NCc1ccc(C(C)(C)C)cc1`
100

# iterate: `COC[C@@H](NC(C)=O)C(=O)NCc1ccc(OC)cc1`
100

# iterate: `CC#Cc1ccc(CNC(=O)[C@@H](COC)NC(C)=O)cc1`
30

# iterate: `COC[C@@H](NC(C)=O)C(=O)NCc1ccc(Cl)cc1`
28
